Molecular target: hCA II (Homo sapiens, UniProt P00918)
Construct: made in house
Experiment: CA catalysed CO2 hydration, stopped-flow inhibition
Assay type: biochemical
Conditions: recombinant hCA II, stopped-flow CO2 hydration, 15 min preincubation; read-out: Ki hCA II
Method: The uncatalyzed rates were determined in the same manner and subtracted from the total observed rates. Stock solutions of inhibitor (0.1 mM) were prepared in distilled − deionized water and dilutions up to 0.01 nM were done thereafter with the assay buffer. Inhibitor and enzyme solutions were preincubated together for 15 min at room temperature before assay to allow for the formation of the E − I complex. […]
Exercise: state measured pKi for each of the compounds provided.
Answers are plain numbers, as −log10 of the molar value.

The examples below pair each entry with its known result.
{"columns": ["COMPOUND", "TARGET SYSTEM", "QUANTITY KIND", "REPORTED MEASUREMENT"],
 "data": [
  ["C#CC[Se]C(=O)c1sccc1Cl [Compound 10b]", "hCA II (Homo sapiens, UniProt P00918)", "pKi", 4.05],
  ["C#CC[Se]C(=O)c1ccccc1OC(C)=O [Compound 14b]", "hCA II (Homo sapiens, UniProt P00918)", "pKi", 4.26],
  ["C#CC[Se]C(=O)c1cccnc1", "hCA II (Homo sapiens, UniProt P00918)", "pKi", 4.18],
  ["C#CC[Se]C(=O)c1cccs1", "hCA II (Homo sapiens, UniProt P00918)", "pKi", 4.33]
]}

# per-item lookup of pKi; items listed below
1. C#CC[Se]C(=O)C=Cc1ccccc1
2. C#CC[Se]C(=O)c1cccnc1Cl
3. C#CC[Se]C(=O)c1ccccc1Nc1cccc(C)c1C [Compound 18b]

1. 4.37
2. 5.07
3. 5.35

Consider the compound C#CC[Se]C(=O)c1ccc2c(c1)OCO2 and give its recorded pKi.
4.27
